Tested on: OVCAR-5 ovarian
test_name: NCI-60 one-dose screen, 48 h
test_conditions: 10 µM unless noted
The panel holds about 83,000 compounds, 20% with a hit somewhere; the sample as a whole holds those more often. Activity calls are given as the source filed them. Rule for the calls: active = growth percent below 10; inactive = the rest.
The reply should name one outcome from class 1 = active, class 0 = inactive

Check out these entries, answers already filled in.
molecule	label_class
CCCCn1c(C(=O)c2c[nH]c3ccccc23)n[nH]c1=S	class 0
C[C@@H]1O[C@@H](O[C@H]2[C@@H](OC(=O)[C@]34CCC(C)(C)C[C@H]3C3=CC[C@@H]5[C@@]6(C)C[C@H](O)[C@H](O[C@@H]7O[C@H](CO)[C@@H](O)[C@H](O)[C@H]7O)[C@@](C)(CO)[C@@H]6CC[C@@]5(C)[C@]3(C)C[C@H]4O)OC[C@@H](O)[C@@H]2O)[C@H](O)[C@H](O[C@@H]2OC[C@@H](O)[C@H](O[C@@H]3OC[C@](O)(CO)[C@H]3O[C@@H]3OC[C@@H](O)[C@H](O)[C@H]3O)[C@H]2O)[C@H]1O[C@@H]1OC[C@](O)(CO)[C@H]1O	class 0
O=C1/C(=C/c2ccc(-c3cccc(C(F)(F)F)c3)o2)SC(=S)N1CCc1ccc(O)cc1	class 0
C[N+]1=C(/C=C\C=C\c2ccccc2)C(C)(C)c2ccccc21	class 0
Cc1ccc(C(=O)N(CCCN)[C@@H](c2nc3cc(Cl)ccc3c(=O)n2Cc2ccccc2)C(C)C)cc1	class 1
CCCn1nc(C(=O)N2CCCCC2)c2c1CCC(N1CCC(c3ccncc3)CC1)C2 (configuration not stated)	class 0
COCCn1cc(-c2csc(-c3cn(C)c4ccc(F)cc34)n2)c2cccnc21	class 0
N=c1c2c(-c3ccccc3)c(-c3ccccc3)oc2ncn1NC(=O)c1cccnc1	class 0

Pending molecule:
Incoming: Hello, I am checking results. What call was entered for C#CCOc1cccc(Nc2ncc3ncn(C4CCN(C(=O)CCl)C4)c3n2)c1 (configuration not stated) ?
Outgoing: class 0

Reference source for all entries: PubChem BioAssay (NCI)
